- Tested on: L1210 leukemia ip in BDF1 mice, survival T/C
- assay-overview: NCI In Vivo Anticancer Drug Screen. Data for tumor model L1210 Leukemia (intraperitoneal) in B6D2F1 (BDF1) mice
- measurement-conditions: endpoint: mean survival time; dose: 200.0 mg/kg/injection; schedule: Q01DX001 (ip); vehicle: saline with Tween-80; higher = longer survival
Toxic doses and inconclusive results are not listed.
reported-endpoint: T/C

> print(dat)
                                   compound            result
1  COc1cc([N+](=O)[O-])ccc1NC(=O)N(C1CCCCC1)C1CCCCC1   91 % of control
2            Nc1ccc(NS(=O)(=O)Cc2ccccc2)cc1   96 % of control
3  Cc1cc(-c2ccc(NS(=O)(=O)c3ccccc3)c(C)c2)ccc1NS(=O)(=O)c1ccccc1   89 % of control
4             COc1ccc(C=Nc2ccccc2C(=O)O)cc1  105 % of control
5  CNC(=O)NC1ON=C(c2ccccc2)C1C(=O)NC (stereo unspecified)   95 % of control

Below are 4 compounds. Give each one its T/C.
1. CCCCCCCC(=N)OCC
2. CC(c1ccccc1)C(O)c1ccccc1 (stereo unspecified)
3. O=C(O)CCCC1OCCO1
4. CCCC(=O)Nc1cc(C)ccc1OC

1. 104 % of control
2. 91 % of control
3. 95 % of control
4. 98 % of control

----------
- Test system: L1210 leukemia ip in BDF1 mice, survival T/C
- assay-overview: NCI In Vivo Anticancer Drug Screen. Data for tumor model L1210 Leukemia (intraperitoneal) in B6D2F1 (BDF1) mice
- measurement-conditions: endpoint: mean survival time; dose: 150.0 mg/kg/injection; schedule: Q04DX003 (ip); vehicle: saline
Toxic doses and inconclusive results are not listed. Cut-off read from the data, not from the text of the source: active = T/C of 150% or more; inactive = T/C below 125%.
Pick one: class 1 = active, class 0 = inactive

Answered cases to consult:
> print(dat)
                                   molecule  group.label
1  COC1OCC(O)C(NC(=O)N(C)N=O)C1O (centres undefined)      class 1
2            CCS(=O)(=O)CS(=O)(=O)Cc1ccccc1      class 0
3  CC(=O)Nc1ccc(C(=O)NNC2=C(NNC(=O)c3ccc(NC(C)=O)cc3)C(=O)c3ccccc3C2=O)cc1      class 0

// outcome(item) with item = C=C=CCCCC
class 0

----------
- Tested on: L1210 leukemia ip in BDF1 mice, survival T/C
- assay-overview: NCI In Vivo Anticancer Drug Screen. Data for tumor model L1210 Leukemia (intraperitoneal) in B6D2F1 (BDF1) mice
- measurement-conditions: endpoint: mean survival time; dose: 50.0 mg/kg/injection; schedule: Q01DX001 (ip); vehicle: carboxymethylcellulose (CMC); higher = longer survival
Inconclusive results and toxic doses are left out.
reported-endpoint: T/C

Examples with their reported T/C follow.
> print(dat)
                            molecule            result
1              C[n+]1cc(I)cc2ccccc21   97 % of control
2    C=CCC(O)C=C (centres undefined)   89 % of control
3                       CC(=O)OCCC#N   95 % of control
4                      CC1(O)CCCCCC1  107 % of control
5  CCOC(=O)C(C)F (centres undefined)   94 % of control

Below are 4 molecules. Give each one its T/C.
1. C[C@]12CC[C@H](O)C[C@@]1(O)CC[C@@H]1[C@@H]2CC[C@]2(C)[C@@H](c3ccc(=O)oc3)CC[C@]12O
2. CCOP(=O)(Nc1cccc(Cl)c1)OCC
3. CC(C)C(CCCC(=O)O)C(=O)O (centres undefined)
4. C=NNC(=O)c1ccc(OC)cc1

["104 % of control", "94 % of control", "96 % of control", "96 % of control"]

----------
- Tested on: L1210 leukemia ip in BDF1 mice, survival T/C
- assay-overview: NCI In Vivo Anticancer Drug Screen. Data for tumor model L1210 Leukemia (intraperitoneal) in B6D2F1 (BDF1) mice
- measurement-conditions: endpoint: mean survival time; dose: 200.0 mg/kg/injection; schedule: Q01DX009 (ip); vehicle: saline
Toxic doses and inconclusive results are not listed. No stated cut-off is given here; in the data, active means T/C of 150% or more; inactive means T/C below 125%. Square brackets hold non-standard residues; d marks the D form. Peptide text beside a SMILES is read from it. * marks the point of attachment. ξ: configuration not given here. Cbz = O=C(OCc1ccccc1)*; ξL = CC(C)CC(N)C(=O)O
Pick one: Y (active), N (inactive)

> print(dat)
                      compound  group.label
1  COC(=O)c1cn[nH]c1/N=N/N(C)C            Y

// outcome(item) with item = COC(=O)C(C)=C1CCCCC1
N

// outcome(item) with item = CCN(CC)C(=O)NC1CCCN1C (stereo not given)
N

// outcome(item) with item = O=[N+]([O-])c1ccc(OCCCCOc2ccccc2)cc1
N

// outcome(item) with item = CCOC(=O)c1ccc(OC)nc1
N

// outcome(item) with item = C1CN2CCOC2O1
N

// outcome(item) with item = O=C1CCCCCN1
N

// outcome(item) with item = CNCCO
N

// outcome(item) with item = CC(=O)c1c(OC(=O)c2ccccc2)cc(OC(=O)c2ccccc2)cc1OC(=O)c1ccccc1
N

// outcome(item) with item = CN(C)C(=N)C(=N)N(C)C
N

// outcome(item) with item = CN(C)N=Nc1cn(C2OC(CO)C(O)C2O)c(=O)[nH]c1=O (stereo not given)
N

// outcome(item) with item = OCC12CCCCC1CC1(CC2)OCCO1 (stereo not given)
N

// outcome(item) with item = OC1C=CC2C3C=CC(C3)C12 (stereo not given)
N

// outcome(item) with item = COc1ccccc1P(c1ccccc1OC)c1ccccc1OC
N

// outcome(item) with item = C=CCN(C(=O)OCC)P(=O)(OCC)OCC
N

// outcome(item) with item = CC[N+](=Cc1ccccc1)C1CCCCC1
N

// outcome(item) with item = O=C1c2cccc(O)c2C(=O)c2c(O)cccc21
N

// outcome(item) with item = CC1(C)CC[C@]2(C(=O)O)CC[C@]3(C)C(=CC[C@@H]4[C@@]5(C)CC[C@H](O)C(C)(C)[C@@H]5CC[C@]43C)[C@@H]2C1
N

// outcome(item) with item = COC(=O)CNC(=O)C(CC(C)C)NC(=O)OCc1ccccc1 (stereo not given) (Cbz-[ξL]-Gly-OMe)
N

// outcome(item) with item = CCN(CC)C(=O)Cn1ccc(N)nc1=O
N

----------
Task for the reader: assign each of the following compounds its reported T/C.
- System: L1210 leukemia ip in BDF1 mice, survival T/C
- assay-overview: NCI In Vivo Anticancer Drug Screen. Data for tumor model L1210 Leukemia (intraperitoneal) in B6D2F1 (BDF1) mice
- measurement-conditions: endpoint: mean survival time; dose: 5.0 mg/kg/injection; schedule: Q01DX001 (ip); vehicle: saline; higher = longer survival
Toxic doses and inconclusive results are not listed.

> print(dat)
                                   compound  reported.endpoint            result
1                CC(C)N1CCc2cc3c(cc2C1)OCO3                T/C  101 % of control
2                 CC(C)=CCNc1ncnc2nc[nH]c12                T/C  107 % of control
3  NC1C2CC3CC(C2)CC1C3 (stereo unspecified)                T/C  102 % of control

Below are 3 compounds. Give each one its T/C.
1. O=S(=O)(O)CS(=O)(=O)O
2. O=[N+]([O-])c1cccc(Cl)c1Oc1cc(Cl)c(Cl)cc1Cl
3. COc1ccc(N(N=O)C(C)=O)cc1

101 % of control
102 % of control
95 % of control

----------
- Test system: L1210 leukemia ip in BDF1 mice, survival T/C
- assay-overview: NCI In Vivo Anticancer Drug Screen. Data for tumor model L1210 Leukemia (intraperitoneal) in B6D2F1 (BDF1) mice
- measurement-conditions: endpoint: mean survival time; dose: 400.0 mg/kg/injection; schedule: Q01DX001 (ip); vehicle: Klucel (hydroxypropylcellulose) (HPC); higher = longer survival
Inconclusive results and toxic doses are left out.
Task for the reader: assign each of the following molecules its reported T/C.

Examples with their reported T/C follow.
> print(dat)
                                   molecule  reported.endpoint            result
1          c1ccc(COc2ccnc(SCc3ccccc3)n2)cc1                T/C  100 % of control
2  O=[N+]([O-])c1ccc(C2N=NCCS2)cc1 (stereo unspecified)                T/C   95 % of control
3       CCCCCCCCCCCCCCSCCSCCSCCCCCCCCCCCCCC                T/C   87 % of control
4  O=C(c1ccc(Cl)cc1)c1nonc1C(=O)c1ccc(Cl)cc1                T/C  100 % of control
5                  CC(C)CCn1ccc(=O)[nH]c1=O                T/C  105 % of control

Let us examine a further case.
Give recorded T/C. CSc1ncnc2c1nnn2C1CC(CO)C(O)C1O (stereo unspecified)
102 % of control
